Reference for the values: ChEMBL document CHEMBL3997818

# System: Influenza A virus H3N2
# assay text: Antiviral activity against Influenza A virus H3N2 infected in MDCK cells assessed as inhibition of virus-induced cytopathic effect after 40 hrs
# Assay type: functional, cell-based
metric: IC50 (µg/mL)
The response must be a number in µg/mL with no trailing unit.

C=C(C(=O)OC)[C@@H]1CC[C@H](C)[C@H]2C(=C(C)C(=O)[C@@H]2C(O)c2cc(Cl)cc(Cl)c2)C1 (single isomer, unassigned) | 6
C=C(C(=O)OC)[C@@H]1CC[C@H](C)[C@H]2C(=C(C)C(=O)[C@@H]2C(O)c2cc(F)cc(F)c2)C1 (single isomer, unassigned) | 14

GET /values?readout=IC50&item= C=C(C(=O)O)[C@@H]1CC[C@H](C)[C@@H]2CC(=O)C(C)=C2C1
55.6

GET /values?readout=IC50&item= C=C(C(=O)OC)[C@@H]1CC[C@H](C)[C@H]2C(=C(C)C(=O)[C@@H]2C(O)c2ccc(OC(F)(F)F)cc2)C1 (single isomer, unassigned)
18

GET /values?readout=IC50&item= C=C(C(=O)OC)[C@@H]1CC[C@H](C)[C@H]2C(=C(C)C(=O)[C@@H]2C(O)c2cc(OC)c(OC)c(OC)c2)C1 (single isomer, unassigned)
56
